Parameter AC50: see the listing below.
# Target Or System: human TSHR (Homo sapiens, UniProt P16473)
# Construct: expressed in transfected cells
# Sequence (P16473 21-764): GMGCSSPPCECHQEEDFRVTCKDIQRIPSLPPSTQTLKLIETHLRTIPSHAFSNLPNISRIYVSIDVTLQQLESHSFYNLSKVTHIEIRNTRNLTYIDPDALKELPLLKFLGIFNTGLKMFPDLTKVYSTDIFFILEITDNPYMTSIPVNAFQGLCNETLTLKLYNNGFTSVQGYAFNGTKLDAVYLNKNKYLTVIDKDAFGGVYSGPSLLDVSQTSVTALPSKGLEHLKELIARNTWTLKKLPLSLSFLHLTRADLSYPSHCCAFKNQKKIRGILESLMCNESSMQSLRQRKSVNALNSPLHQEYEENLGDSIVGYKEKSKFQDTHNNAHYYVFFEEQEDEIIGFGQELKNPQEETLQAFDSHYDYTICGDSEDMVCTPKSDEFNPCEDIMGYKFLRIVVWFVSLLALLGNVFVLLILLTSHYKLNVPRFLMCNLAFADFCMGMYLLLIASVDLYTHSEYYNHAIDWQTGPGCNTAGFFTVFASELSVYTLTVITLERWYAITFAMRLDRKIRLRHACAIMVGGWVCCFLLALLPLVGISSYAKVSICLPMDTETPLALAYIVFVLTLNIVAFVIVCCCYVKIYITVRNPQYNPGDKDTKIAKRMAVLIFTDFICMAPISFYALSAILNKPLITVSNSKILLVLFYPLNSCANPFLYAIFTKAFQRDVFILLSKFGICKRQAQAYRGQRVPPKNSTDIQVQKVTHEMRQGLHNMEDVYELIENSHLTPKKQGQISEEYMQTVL
# Assay Name: Homogeneous Time Resolved Fluorescence (HTRF) cAMP assay, TSHR cell line
# Format: cell-based
# Assay Setup: HTRF cAMP, TSHR cell line, 30 minute incubation; read-out: AC50
Numeric only. Scale: µM

Prompt: Request the reported AC50 associated with COc1ccc(-c2nc3ccc(Cl)cc3c(=O)n2Cc2ccccc2)cc1COc1ccc(NC(C)=O)cc1
Response: 3.98

Prompt: What do we get for COc1ccc(C2Nc3ccccc3C(=O)N2Cc2cccc(Cl)c2)cc1COc1ccc(NC(C)=O)cc1 (centres unmarked) [Structure 50] ?
Response: 2.82

Prompt: Field entry: COc1ccc(C2Nc3cccc(OC)c3C(=O)N2Cc2ccccc2)cc1COc1ccc(NC(C)=O)cc1 (centres unmarked) [Structure 106]
Response: 17.8

Next:
Prompt: Return reported AC50; argument: COc1ccc(-c2nc3ccccc3c(=O)n2Cc2ccccc2)cc1COc1ccc(NC(C)=O)cc1 [Structure 64]
Response: 7.94

Prompt: Same again, this time with COc1ccc(C2Nc3ccccc3C(=O)N2Cc2ccccc2Cl)cc1COc1ccc(NC(C)=O)cc1 (centres unmarked) [Structure 231]
Response: 3.55

Prompt: And for COc1ccc(C2Nc3ccccc3C(=O)N2Cc2cccc(-c3ccccc3)c2)cc1COc1ccc(NC(C)=O)cc1 (centres unmarked) [Structure 13] ?
Response: 2.24

Prompt: COc1ccc(CN2C(=O)c3ccccc3NC2c2ccc(OC)c(COc3ccc(NC(C)=O)cc3)c2)cc1 (centres unmarked) [Structure 30] , same question.
Response: 3.16

Prompt: Would you kindly repeat that for COc1ccc(C(=O)N(Cc2ccccc2)Cc2ccco2)c(O)c1 [Structure 102] ?
Response: 15.8
